# Subject of test: Histamine H3 receptor (Homo sapiens)
# Sequence (Q9Y5N1 whole entry): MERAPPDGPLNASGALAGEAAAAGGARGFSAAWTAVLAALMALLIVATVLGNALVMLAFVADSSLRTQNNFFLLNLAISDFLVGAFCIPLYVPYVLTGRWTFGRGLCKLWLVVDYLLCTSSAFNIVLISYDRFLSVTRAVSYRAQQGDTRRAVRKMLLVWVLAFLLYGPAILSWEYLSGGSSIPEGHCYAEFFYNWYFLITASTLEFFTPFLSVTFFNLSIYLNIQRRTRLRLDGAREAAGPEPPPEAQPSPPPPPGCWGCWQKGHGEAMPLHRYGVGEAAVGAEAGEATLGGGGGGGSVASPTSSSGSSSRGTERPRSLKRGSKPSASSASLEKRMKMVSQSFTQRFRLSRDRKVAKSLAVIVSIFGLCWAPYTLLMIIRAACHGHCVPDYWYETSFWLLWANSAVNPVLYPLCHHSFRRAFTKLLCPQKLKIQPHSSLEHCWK
Readout label: pKi
Please note pKi is a logarithmic value: minus log10 of concentration in mol/L. Answer with that number alone.

Past entries and their recorded results:
# Compound, pKi
measured = [
    ("CC1CCN(CCCCCOc2ccc3oc4ccc(Cl)cc4c(=O)c3c2)CC1", 6.85),
    ("CC1CCN(CCCCCCOc2ccc3oc4cc(Cl)ccc4c(=O)c3c2)CC1", 6.28),
    ("CC1CCCN(CCCCCOc2ccc3oc4cc(Cl)ccc4c(=O)c3c2)C1 (stereo unspecified)", 7.25),
]

(Q) What value of pKi has been reported for the following compound? O=c1c2ccc(Cl)cc2oc2ccc(OCCCCCN3CCCCCC3)cc12
(A) 7.07

(Q) # input compound: O=c1c2ccccc2oc2ccc(OCCCCCN3CCCCCC3)cc12 ; wanted: its pKi
(A) 6.77

(Q) Give its pKi value. Item: O=c1c2ccc(Cl)cc2oc2ccc(OCCCCCCN3CCCCC3)cc12
(A) 6.69

----------
# Subject of test: UniProt P06276
# Sequence (P06276 whole entry): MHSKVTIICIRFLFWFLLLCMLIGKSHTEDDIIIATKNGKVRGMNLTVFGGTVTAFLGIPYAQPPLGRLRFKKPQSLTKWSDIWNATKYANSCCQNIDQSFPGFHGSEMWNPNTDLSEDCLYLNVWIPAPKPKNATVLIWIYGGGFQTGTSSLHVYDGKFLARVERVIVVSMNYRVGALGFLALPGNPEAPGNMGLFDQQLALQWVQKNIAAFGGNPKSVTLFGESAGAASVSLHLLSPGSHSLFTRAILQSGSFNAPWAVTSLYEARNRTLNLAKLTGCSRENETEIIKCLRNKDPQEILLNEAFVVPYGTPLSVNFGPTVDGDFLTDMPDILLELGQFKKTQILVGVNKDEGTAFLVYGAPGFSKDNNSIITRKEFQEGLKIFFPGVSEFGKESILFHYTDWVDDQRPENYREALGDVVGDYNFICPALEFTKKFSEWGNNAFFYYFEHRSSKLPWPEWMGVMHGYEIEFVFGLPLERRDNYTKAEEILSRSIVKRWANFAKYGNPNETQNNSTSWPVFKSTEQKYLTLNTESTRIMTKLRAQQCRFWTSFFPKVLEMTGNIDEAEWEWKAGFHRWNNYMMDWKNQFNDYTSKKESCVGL
Readout label: IC50
Answer format: number, then unit.

# Smiles input, Readout label, Measured
measured = [
    ("O=c1c2cc(Cl)ccc2oc2ccc(OCCCCCN3CCCCCC3)cc12", "IC50", "1.59 µM"),
]

API: the following record is the query input.
(Q) Request body: readout IC50, system UniProt P06276, query O=c1c2ccccc2oc2ccc(OCCCCCN3CCCCCC3)cc12 . Return the value.
(A) 1.28 µM

----------
# Subject of test: Acetylcholinesterase (Electrophorus electricus, UniProt O42275)
# Sequence (O42275 whole entry): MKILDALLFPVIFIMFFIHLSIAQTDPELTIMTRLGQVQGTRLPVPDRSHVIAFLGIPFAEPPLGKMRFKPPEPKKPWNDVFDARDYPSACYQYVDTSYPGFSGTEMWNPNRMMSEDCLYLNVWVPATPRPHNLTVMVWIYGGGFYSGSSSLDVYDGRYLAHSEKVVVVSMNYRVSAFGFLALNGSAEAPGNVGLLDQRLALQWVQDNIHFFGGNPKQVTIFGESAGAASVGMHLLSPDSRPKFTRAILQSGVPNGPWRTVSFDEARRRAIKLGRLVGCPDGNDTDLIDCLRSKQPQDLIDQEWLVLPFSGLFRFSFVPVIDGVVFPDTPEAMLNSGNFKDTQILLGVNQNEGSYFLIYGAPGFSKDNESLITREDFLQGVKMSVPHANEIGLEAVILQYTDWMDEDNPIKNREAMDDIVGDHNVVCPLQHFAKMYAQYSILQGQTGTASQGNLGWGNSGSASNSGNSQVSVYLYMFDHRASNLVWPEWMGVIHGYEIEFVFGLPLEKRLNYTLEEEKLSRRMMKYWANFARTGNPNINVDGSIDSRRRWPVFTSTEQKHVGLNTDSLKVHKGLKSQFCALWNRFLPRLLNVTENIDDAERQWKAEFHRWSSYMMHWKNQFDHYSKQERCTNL
Readout label: IC50 (nM)
Please reply with the bare figure in nM and do not write the unit itself.

Examples with answers:
# Molecule, Quantity unit, Measured
records = [
    ("O=c1c2ccccc2oc2ccc(OCCCCCN3CCCCC3)cc12", "nM", 622),
    ("O=c1c2ccc(Cl)cc2oc2ccc(OCCCCCCN3CCCCCC3)cc12", "nM", 235),
    ("O=c1c2ccccc2oc2ccc(OCCCCCN3CCCCCC3)cc12", "nM", 180),
    ("O=c1c2ccc(Cl)cc2oc2ccc(OCCCCCCN3CCCCC3)cc12", "nM", 378),
    ("O=c1c2cc(Cl)ccc2oc2ccc(OCCCCCN3CCCCC3)cc12", "nM", 238),
    ("O=c1c2cc(Cl)ccc2oc2ccc(OCCCCCCN3CCCCC3)cc12", "nM", 620),
    ("O=c1c2ccccc2oc2ccc(OCCCCCCN3CCCCC3)cc12", "nM", 358),
    ("CC1CCN(CCCCCOc2ccc3oc4cc(Cl)ccc4c(=O)c3c2)CC1", "nM", 421),
]

As a next step, examine the molecule that follows.
(Q) May I ask what IC50 has been recorded for O=c1c2cc(Cl)ccc2oc2ccc(OCCCCCN3CCCCCC3)cc12 ?
(A) 136

----------
The compounds below have reported pIC50 for Cholinesterase (Equus caballus, UniProt P81908).
Schema: pIC50 number; meaning minus log10 of the concentration expressed in molar units.

# Compound, pIC50
records = [
    ("CC1CCN(CCCCCCOc2ccc3oc4ccc(Cl)cc4c(=O)c3c2)CC1", 6.05),
    ("CC1CCN(CCCCCCOc2ccc3oc4ccccc4c(=O)c3c2)CC1", 6.02),
    ("CC1CCN(CCCCCOc2ccc3oc4ccccc4c(=O)c3c2)CC1", 5.96),
    ("CC1CCCN(CCCCCCOc2ccc3oc4ccc(Cl)cc4c(=O)c3c2)C1 (stereo unspecified)", 5.83),
    ("O=c1c2ccccc2oc2ccc(OCCCCCCN3CCCCCC3)cc12", 6.22),
]

(Q) Query for Cholinesterase (Equus caballus, UniProt P81908): what pIC50 does the record show for CC1CCCN(CCCCCCOc2ccc3oc4ccccc4c(=O)c3c2)C1 (stereo unspecified) ?
(A) 5.94

(Q) Form entry - test system: Cholinesterase (Equus caballus, UniProt P81908); read-out: pIC50; compound: O=c1c2ccccc2oc2ccc(OCCCCCN3CCCCC3)cc12
Sequence (P81908 whole entry): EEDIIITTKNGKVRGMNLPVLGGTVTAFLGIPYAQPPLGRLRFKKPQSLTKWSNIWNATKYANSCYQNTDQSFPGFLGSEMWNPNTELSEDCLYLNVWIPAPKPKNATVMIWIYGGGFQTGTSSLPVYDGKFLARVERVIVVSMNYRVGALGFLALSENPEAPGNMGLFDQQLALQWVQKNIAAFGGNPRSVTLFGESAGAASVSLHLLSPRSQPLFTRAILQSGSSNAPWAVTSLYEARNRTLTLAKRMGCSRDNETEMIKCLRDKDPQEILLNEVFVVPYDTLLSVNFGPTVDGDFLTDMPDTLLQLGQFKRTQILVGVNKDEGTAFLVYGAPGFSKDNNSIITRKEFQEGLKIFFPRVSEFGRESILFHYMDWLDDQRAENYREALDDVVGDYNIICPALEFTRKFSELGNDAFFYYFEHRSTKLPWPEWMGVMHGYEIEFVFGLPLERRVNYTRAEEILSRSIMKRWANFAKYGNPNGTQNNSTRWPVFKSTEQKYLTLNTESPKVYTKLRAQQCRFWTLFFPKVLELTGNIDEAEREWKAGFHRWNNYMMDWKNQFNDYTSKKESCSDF
(A) 5.60

(Q) Give the reported pIC50 for CC1CCCN(CCCCCCOc2ccc3oc4cc(Cl)ccc4c(=O)c3c2)C1 (stereo unspecified) (system: Cholinesterase (Equus caballus, UniProt P81908)).
(A) 5.69

(Q) Missing value: pIC50, Cholinesterase (Equus caballus, UniProt P81908), entry CC1CCCN(CCCCCOc2ccc3oc4ccc(Cl)cc4c(=O)c3c2)C1 (stereo unspecified) . Fill in?
(A) 6.16

(Q) Please tell me: pIC50 of CC1CCN(CCCCCOc2ccc3oc4ccc(Cl)cc4c(=O)c3c2)CC1 , system Cholinesterase (Equus caballus, UniProt P81908)?
(A) 5.96

(Q) Find pIC50 (Cholinesterase (Equus caballus, UniProt P81908)) for the entry CC1CCCN(CCCCCOc2ccc3oc4ccccc4c(=O)c3c2)C1 (stereo unspecified)
(A) 6.01

Origin of the recorded values: ChEMBL document CHEMBL4706551
